Tested On: SARS-CoV-2 M^pro (Severe acute respiratory syndrome coronavirus 2)
pKd: −log10 of the molar value. Numbered stars: 1 amine (or outer) side, 2 acyl side, 3 side chain; on linkers, the order of the positions; unused ones are H or OH. Bridge positions count the residues as written; N and C are the ends. Square brackets hold non-standard residues; d marks the D form. Peptide text beside a SMILES is read from it. Acbc(cis-1,3) = O=C([C@H]1C[C@@H](N[*:1])C1)[*:2]
Hi, to clarify the labels: rule met covers pKd from 7 upward, rule not met covers anything below 7.

Compound	Category
CC(C)C[C@@H]1NC(=O)[C@H](CC(N)=O)NC(=O)[C@H](CC(C)C)NC(=O)[C@H]2C[C@H](C2)NC(=O)[C@H](CCC(N)=O)NC(=O)[C@H](Cc2ccccc2)NC(=O)[C@@H](Cc2ccc(O)cc2)NC(=O)CSC[C@H](C(N)=O)NC(=O)CNC(=O)[C@@H]2CCCN2C(=O)[C@H](CCCNC(=N)N)NC(=O)[C@H](Cc2ccc(O)cc2)NC(=O)CNC1=O [GM4H3Q] ({CH2CO}-[dY]FQ[Acbc(cis-1,3)]LNLGYRPG[dC]-NH2; thioether N-13)	rule met
CC(C)C[C@@H]1NC(=O)[C@H](CC(N)=O)NC(=O)[C@H](CC(C)C)NC(=O)[C@H]2C[C@H](C2)NC(=O)[C@H](CCC(=O)O)NC(=O)[C@H](Cc2ccccc2)NC(=O)[C@@H](Cc2ccc(O)cc2)NC(=O)CSC[C@H](C(N)=O)NC(=O)CNC(=O)[C@@H]2CCCN2C(=O)[C@H](CCCNC(=N)N)NC(=O)[C@H](Cc2ccc(O)cc2)NC(=O)CNC1=O [GM4H3E] ({CH2CO}-[dY]FE[Acbc(cis-1,3)]LNLGYRPG[dC]-NH2; thioether N-13)	rule not met
CC(C)C[C@@H]1NC(=O)[C@H](CC(N)=O)NC(=O)[C@H](CC(C)C)NC(=O)[C@H](CC(N)=O)NC(=O)[C@H](Cc2c[nH]cn2)NC(=O)[C@H](Cc2ccccc2)NC(=O)[C@@H](Cc2ccc(O)cc2)NC(=O)CSC[C@H](C(N)=O)NC(=O)CNC(=O)[C@@H]2CCCN2C(=O)[C@H](CCCNC(=N)N)NC(=O)[C@H](Cc2ccc(O)cc2)NC(=O)CNC1=O [GM4γ^14N] ({CH2CO}-[dY]FHNLNLGYRPG[dC]-NH2; thioether N-13)	rule not met
